As shown below, each of these molecules has a reported phenotypic distance value.
# System: E57 (patient-derived glioblastoma stem cells of mesenchymal subtype)
# Assay Notes: phenotypic distance (Euclidean, principal components) from DMSO controls (arbitrary units); higher = stronger morphological change
# Test Settings: 3000 nM; exposure time: 72 h
Where a name gives a salt, the structure may show the parent alone.

Nc1nc2n[nH]nc2c(=O)[nH]1
6.09
COc1cc(OC)c(C(=O)CCCN2CCCC2)c(OC)c1 [Buflomedil hydrochloride]
0.526
NC1CCN(c2nc3c(cc2F)c(=O)c(C(=O)O)cn3-c2ccc(F)cc2F)C1 (centres undefined) [Tosufloxacin hydrochloride]
0.801

Below: the item to evaluate.
## Input Entry Cc1cc(Nc2cc(N3CCN(C)CC3)nc(Sc3ccc(NC(=O)C4CC4)cc3)n2)n[nH]1 has what phenotypic distance?
## Output 8.14

====

# Test system: E57
# Assay Notes: phenotypic distance (Euclidean, principal components) from DMSO controls (arbitrary units); higher = stronger morphological change
# Test Settings: 3000 nM; exposure time: 72 h
Structures can show the parent of a compound that is named as a salt.
Assign satisfied whenever phenotypic distance does not fall below 5; assign not satisfied whenever it does.

O=c1[nH]c(=O)n([C@H]2C[C@H](O)[C@@H](CO)O2)cc1I [Idoxuridine]
not satisfied
COc1cc([C@@H]2c3cc4c(cc3[C@@H](O[C@@H]3O[C@@H]5CO[C@@H](c6cccs6)O[C@H]5[C@H](O)[C@H]3O)[C@H]3COC(=O)[C@H]23)OCO4)cc(OC)c1O [Teniposide]
satisfied
Cc1ncc(CO)c(CO)c1O [Pyridoxine hydrochloride]
not satisfied

## Input Kindly determine if phenotypic distance recorded for C/C=C(\C)C(=O)N[C@@H](c1ccccc1)[C@@H](O)C(=O)O[C@H]1C[C@@]2(O)[C@@H](OC(=O)c3ccccc3)[C@@H]3[C@]4(OC(C)=O)CO[C@@H]4C[C@H](O)[C@@]3(C)C(=O)[C@H](OC(C)=O)C(=C1C)C2(C)C [Cephalomannine] is above or exactly 5.
## Output satisfied

## Input Form field: phenotypic distance at least 5? Entry: CCCCCCCCCCCCCC(=O)O[C@@H]1[C@@H](C)[C@@]2(O)[C@@H](C=C(CO)C[C@]3(O)C(=O)C(C)=C[C@@H]23)[C@@H]2C(C)(C)[C@]12OC(C)=O [Phorbol 12-myristate 13-acetate]
## Output satisfied

## Input Is it the case that O=C(CCBr)N1CCN(C(=O)CCBr)CC1 [Pipobroman] has phenotypic distance reaching or exceeding 5?
## Output not satisfied

## Input Please indicate if the recorded phenotypic distance for COc1cc2c(c(OC)c1OC)-c1ccc(OC)c(=O)cc1[C@@H](NC(C)=O)CC2 [Colchicine] meets or exceeds 5.
## Output satisfied

## Input In plain terms: is recorded phenotypic distance at least 5 for CC(C)C[C@H](NC(=O)[C@H](CCc1ccccc1)NC(=O)CN1CCOCC1)C(=O)N[C@@H](Cc1ccccc1)C(=O)N[C@@H](CC(C)C)C(=O)[C@@]1(C)CO1 [Carfilzomib] ?
## Output satisfied

====

# System: E21 (patient-derived glioblastoma stem cells of mesenchymal subtype)
# Assay Notes: phenotypic distance (Euclidean, principal components) from DMSO controls (arbitrary units); higher = stronger morphological change
# Test Settings: 4.1 nM; exposure time: 72 h
Structures can show the parent of a compound that is named as a salt.
Param threshold (1) applies to phenotypic distance; output yes (1) when value >= threshold, no (0) when value < threshold.

COc1cc(NS(C)(=O)=O)ccc1Nc1c2ccccc2nc2ccccc12 [Amsacrine]
no (0)

## Input Please indicate if the recorded phenotypic distance for NCCCP(=O)(O)O [3-Aminopropylphosphonic acid] meets or exceeds 1.
## Output yes (1)

## Input Kindly determine if phenotypic distance recorded for CCOC(=O)OC(C)OC(=O)[C@@H]1N2C(=O)[C@@H](NC(=O)[C@H](N)c3ccccc3)[C@H]2SC1(C)C (stereo partly drawn) [Bacampicillin hydrochloride] is above or exactly 1.
## Output no (0)

====

# Tested on: E57
# Assay Notes: phenotypic distance (Euclidean, principal components) from DMSO controls (arbitrary units); higher = stronger morphological change
# Test Settings: 1000 nM; exposure time: 72 h
Where a name gives a salt, the structure may show the parent alone.
I would appreciate it if you labelled entries satisfied when phenotypic distance is 5 or higher, otherwise not satisfied.

CC(C)C[C@H](NC(=O)[C@H](Cc1ccccc1)NC(=O)c1cnccn1)B(O)O
satisfied
OCCN1CCN(CCCN2c3ccccc3Sc3ccc(C(F)(F)F)cc32)CC1 [Fluphenazine dihydrochloride]
not satisfied
Cc1c(-c2ccc(-c3ccccc3F)cc2)nc2ccc(F)cc2c1C(=O)O [Brequinar sodium salt hydrate]
satisfied
CCC1=C[C@@H]2CN(C1)Cc1c([nH]c3ccccc13)[C@@](C(=O)OC)(c1cc3c(cc1OC)N(C)[C@H]1[C@@](O)(C(=O)OC)[C@H](OC(C)=O)[C@]4(CC)C=CCN5CC[C@]31[C@@H]54)C2 [Vinorelbine Tartrate]
not satisfied
O=C1c2c(O)ccc(O)c2C(=O)c2c(NCCNCCO)ccc(NCCNCCO)c21
satisfied
CCCCC(CC)CNC(=N)NC(=N)NCCCCCCNC(=N)NC(=N)NCC(CC)CCCC (configuration not stated) [Alexidine dihydrochloride]
satisfied

Now consider the entry below.
## Input State whether the measured phenotypic distance reaches 5, counting equality as reaching it, for Nc1ncn([C@@H]2O[C@H](CO)[C@@H](O)[C@H]2O)c(=O)n1
## Output not satisfied

====

# Tested on: E28 (patient-derived glioblastoma stem cells of classical subtype);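 note: nuclei counted by high-content imaging of Hoechst-stained cells in laminin-coated 384-well plates, relative to 0.1% DMSO vehicle wells, with staurosporine as cell-death control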
# Assay Notes: surviving fraction (nuclei count normalised to DMSO); higher = more cells surviving (less toxic)
# Test Settings: 12.3 nM; exposure time: 72 h
Structures can show the parent of a compound that is named as a salt.
We use 1 as the dividing line for surviving fraction: on or above the line is y, below is n.

Use these answered entries as a reference point.
Cc1cc(CN2CCN(c3c(Br)cnc4nc(-c5ccc(N6CCN(C)CC6)cc5)[nH]c34)CC2)no1
n
CC[C@@H]1C(=O)N(C)c2cnc(Nc3ccc(C(=O)N[C@H]4CC[C@H](N5CCN(CC6CC6)CC5)CC4)cc3OC)nc2N1C(C)C
n
COc1ccc(C(=O)CC(=O)c2ccc(C(C)(C)C)cc2)cc1
y
CCN1CCN(C(=O)Cc2ccc(Nc3ncc(F)c(Nc4ccc(C(=O)Nc5ccccc5Cl)cc4)n3)cc2)CC1
y
CC(=O)O[C@@]12CO[C@@H]1C[C@H](O)[C@@]1(C)C(=O)[C@H](O)C3=C(C)[C@@H](OC(=O)[C@H](O)[C@@H](NC(=O)OC(C)(C)C)c4ccccc4)C[C@@](O)([C@@H](OC(=O)c4ccccc4)[C@H]21)C3(C)C
n

## Input Does surviving fraction meet or surpass 1 for C[C@H](Cc1cc2c(c(C(N)=O)c1)N(CCCO)CC2)NCCOc1ccccc1OCC(F)(F)F ?
## Output n

## Input Hi, just wondering whether Nc1ccn([C@H]2CC[C@@H](CO)O2)c(=O)n1 shows surviving fraction of 1 or higher.
## Output y

## Input Does the compound CC(C)C[C@@H](C(=O)N[C@H](C(=O)OC1CCCC1)c1ccccc1)[C@H](O)C(=O)NO have recorded surviving fraction that is 1 or more?
## Output n

## Input Exam item: decide whether the reported surviving fraction for C/C(=C\c1csc(C)n1)[C@@H]1C[C@@H]2O[C@]2(C)CCC[C@H](C)[C@H](O)[C@@H](C)C(=O)C(C)(C)[C@@H](O)CC(=O)N1 [Ixabepilone] is at least 1.
## Output n

## Input Threshold query (surviving fraction >= 1) on OC[C@H]1O[C@@H](Oc2ccc(O)cc2)[C@H](O)[C@@H](O)[C@@H]1O
## Output y

## Input Check the entry CC[N+](CC)(CC)CCOc1ccc(/C=C/c2ccccc2)cc1 : does surviving fraction equal or exceed 1?
## Output y

## Input hey, is surviving fraction for this one >= 1? N=C(N)NCc1cccc(I)c1 [Iobenguane sulfate]
## Output y

## Input Determine whether measured surviving fraction meets or exceeds 1 for CCCCCCCCCCCCCC(=O)O[C@@H]1[C@@H](C)[C@@]2(O)[C@@H](C=C(CO)C[C@]3(O)C(=O)C(C)=C[C@@H]23)[C@@H]2C(C)(C)[C@]12OC(C)=O [Phorbol 12-myristate 13-acetate]
## Output n

## Input Could you please find out whether Cc1c(-c2ccc(-c3ccccc3F)cc2)nc2ccc(F)cc2c1C(=O)O [Brequinar sodium salt hydrate] has surviving fraction that meets 1 or exceeds it?
## Output y

## Input Please indicate if the recorded surviving fraction for COC(=O)C[C@](O)(CCCC(C)(C)O)C(=O)O[C@@H]1C(OC)=C[C@]23CCCN2CCc2cc4c(cc2[C@H]13)OCO4 meets or exceeds 1.
## Output n

## Input Threshold query (surviving fraction >= 1) on CC(C)C[C@H]1C(=O)N2CCC[C@H]2[C@]2(O)O[C@](NC(=O)[C@@H]3C=C4c5cccc6[nH]c(Br)c(c56)C[C@H]4N(C)C3)(C(C)C)C(=O)N12 [Bromocryptine mesylate]
## Output y

## Input Given CC(C)C[C@H](NC(=O)CNC(=O)c1cc(Cl)ccc1Cl)B(O)O , state whether its surviving fraction is at least 1.
## Output n
